// data source = PubChem BioAssay

The following molecules are shown together with reported differential viability (reversal) values.
Test method notes: reversal of MRP1-mediated doxorubicin resistance, pilot screen, H69AR cells, doxorubicin co-treatment (AID 601)
Measurement parameters: H69AR cells + 2 uM doxorubicin, CellTiter-Glo, 72 h; at 10 µM; stronger effect = higher value
Give a bare numeral; the unit % is implied.

Check out these entries, answers already filled in.
{"Molecule": "CCCCOCP(=O)(CCCC)COCCCC", "Outcome measure": "differential viability (reversal)", "Units symbol": "%", "Result value": 5.32}
{"Molecule": "CC(NC(=O)Nc1ccccc1)C(c1cccs1)N1CCOCC1 (stereo unspecified)", "Outcome measure": "differential viability (reversal)", "Units symbol": "%", "Result value": 16.3}
{"Molecule": "O=S(=O)(Nc1nc2ccccc2nc1NCc1ccco1)c1ccc(Cl)cc1", "Outcome measure": "differential viability (reversal)", "Units symbol": "%", "Result value": -4.42}

# ---- query molecule ----
GET /value?item= "O=C(NC1CCCCC1)c1ccc(S(=O)(=O)N2CCCCC2)cc1" &field=differential viability (reversal) returns -29.9
